Tested on: MS2 coat protein
assay text: apparent KD of MS2 coat protein; designed switch direction (-1 OFF switch, 1 ON switch): -1; higher = weaker reporter binding
test parameters: input ligand: none
assay metric: apparent KD of MS2 coat protein (µM)
Give your result in µM as a bare value.

The following sequences have reported results that may help.
GUUUUCAGACGGAGAUCCGACAUGAGGAUCACCCAUGUCUCACAAGCUUUUUGCUCGUCUUAUACUCCUCUGUUCUC [Elimod 43 - Jieux - Sensor, turn-off variant 1] (Eterna round: R97, puzzle: Sensor, turn-off variant 1)	0.0159
CUAGUAUAUCAGGAUAUGAUAGCUUAUAGCAUAUCAGAAGGGAUUACAUGAGGAUCACCCAUGUGAAGGGAUGA [eternacac ex6r4 sub17] (Eterna round: R97, puzzle: Exclusion 6)	0.275
AAUGAUUGACGAGGAUAUUGUGGUGAAACACGACGAGAAGGCGUAUGUCACAUGAGGAUCACCCAUGUGUGCUUUGUGGAUAUA [Ex NG1 #69] (Eterna round: R96, puzzle: Exclusion NG 1)	0.0311

Would you kindly look at the next entry?
Reported apparent KD of MS2 coat protein ( AUCAGCUCGUGAGGAUAUAUAUUAACAUGAGGAUCACCCAUGUAAGAUCAGCUUCGGCAGUUAAUAUAGAAGGCACGAGCUGAU [ENG2/14-A2] (Eterna round: R96, puzzle: Exclusion NG 2) ) = 0.114

----------
Test system: K4 kissing-loop RNA reporter;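 further: bound reporter read as fluorescence of individual clusters on recovered sequencing chips by microscopy, with normalized cluster intensities fitted with a binding model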
assay text: apparent KD of K4 kissing-loop reporter; higher = weaker reporter binding
test parameters: Eterna round: R107; input ligand: FMN 200 uM
Catalogue of sequences with associated apparent KD of K4 kissing-loop reporter
Give your result in µM as a bare value.

# value of apparent KD of K4 kissing-loop reporter, K4 kissing-loop RNA reporter, item AAUCACCGAGCGGCCGCCACUGCACAAAGCGAGUUUAUAGACACGGUACUGGAGUGAUGUUCGAGCAGGACCGGGCUAACUAAGC [theeternabot_sameState_KL_Trp_B_12] = 0.871

# value of apparent KD of K4 kissing-loop reporter, K4 kissing-loop RNA reporter, item AGAAGAGUGAUGUUCUUCUAUAUCUCAGAAGGAGCGACAUAAAUGUCAGGUAGGUCGCUGAGAUGAAAUCUCACACAGAUCUUGG [Arg A SS t8] = 0.127

# value of apparent KD of K4 kissing-loop reporter, K4 kissing-loop RNA reporter, item AGUGUUAGGUUAGAUACCAGCCGUCUGUGAGUAACCCACAGACCGCCAGUGAUGUUGGCAGGCCCUUGGCAGCUAACAGGACAGA [Anesarerza] = 0.211

# value of apparent KD of K4 kissing-loop reporter, K4 kissing-loop RNA reporter, item AAACAUCACUGGGAGUGAUGUUCUCAGUGACGAGGACCGGUACGGCCGCCACUCGCGAGAGAUAUAGUCUAGUAAUGACUGCAUU [Excl Tryptophan A V9] = 0.299

# value of apparent KD of K4 kissing-loop reporter, K4 kissing-loop RNA reporter, item AAUAGGGAUAGUGAUGUUAUCCCUUAUGAUACCAGUGCCAUCGGACACCCUUGGCAGCAUACGGGCAGUGAUGUUGUUCUUGGAG [Exclusion Theophylline A GF 15] = 0.103

# value of apparent KD of K4 kissing-loop reporter, K4 kissing-loop RNA reporter, item UUUAUAUUGUCGGCCGCCACUGGAUCAAUAUUUGUAUGAUCUAGUUCAAAGUGAUGUUUUGAGUCCAGGACCGGGACAUUUGUUA [JR_ExcTryptoB_Sub005] = 0.708

# value of apparent KD of K4 kissing-loop reporter, K4 kissing-loop RNA reporter, item GCUAUCUGAGCCCAGUGAUGUUGAGUGCUGAAGGAUAUGCGAUAGAGCAGAAGGUCAAGAACAUUGUUCGAUUAUCAAAACAAGU [theeternabot_exclusion_KL_FMN_A_35] = 0.264

# value of apparent KD of K4 kissing-loop reporter, K4 kissing-loop RNA reporter, item CUUAUGGCGUUUGGAAGGAGCGGCUCAUCACGAGGACCGGUACGGCCGCCACUCGAGAGAGCAUAAGAAAGUGAUGUUUUCGGUU [theeternabot_sameState_KL_Trp_A_44] = 0.517

# value of apparent KD of K4 kissing-loop reporter, K4 kissing-loop RNA reporter, item AGAUGUUUAGCUCAAAGAACGAAAAUGGAAGGAGCGUGCGAAAGCACAGGUAGGUCGCCAGUGAUGUUGGAACCUGAGCAUCAAA [#SwitchBubble 16 #K4Late] = 0.316

# value of apparent KD of K4 kissing-loop reporter, K4 kissing-loop RNA reporter, item AAUUCAGUGAUGUUGGAAGGCAGGCGGGAUACCAGCGGAGAAUAACGCCCUUGGCAGCCCAUAUAUCCCAAAUAGAUAAUAGUUC [Same State - Theophylline A (Freestyle 3)] = 0.386

# value of apparent KD of K4 kissing-loop reporter, K4 kissing-loop RNA reporter, item CACGAUGAAUUCUCUAGGAGUGAUGUUUUUCGAGGACCGGUACGGCCGCCACUCGGACGACGAGUGUGGUAGCGGGCUGAAGACU [zgullin] = 0.429

# value of apparent KD of K4 kissing-loop reporter, K4 kissing-loop RNA reporter, item CUUCGAUUAACGGAUACCAGUCACUUGGGAGCCACACACAAGUGAGUGAUGUUCACUUGUGACCCUUGGCAGCCGUUAGUCGAAG [#05 K4 Theophylline B Exclusion] = 0.106

# value of apparent KD of K4 kissing-loop reporter, K4 kissing-loop RNA reporter, item CGCCACAACUGAAGGAGCGCGCCAGUGAUGUUGGACGGCUUCGUCAAGGAAACUGCACCGGUGCAGGUAGGUCGCAGUGCGUGGU [Eranarve] = 0.186

# value of apparent KD of K4 kissing-loop reporter, K4 kissing-loop RNA reporter, item GCCAGUGAUGUUGGCAUUUCGAGCCAUGAAGGAGCGCACGGAAGUGCAGGUAGGUCGCAUGGUACUUAGGAUAUUACCCUAAGUA [Isterare] = 0.206

# value of apparent KD of K4 kissing-loop reporter, K4 kissing-loop RNA reporter, item AGUUAUGUAUCAGGAUAUUAGUGAUGUUUGUUUUUGUUAGUGAUGUUGAUAUUUGUUUUAUGUAUUUAAGAAGGGAUUGAGAUGU [qsszmullin] = 0.0682

# value of apparent KD of K4 kissing-loop reporter, K4 kissing-loop RNA reporter, item UUAGGAGUGGAAGGAUAUCCUGGUGUGGGUGAUGUUAGUGAUGUUGAAAGUGCAGUGAUGUUGUGCGGAGAAGGUCCGGUGUUGA [BDazzled - #8 - Exc. FMN B] = 0.147

----------
Catalogue of sequences with associated apparent KD of MS2 coat protein
Tested on: MS2 coat protein
assay text: apparent KD of MS2 coat protein; designed switch direction (-1 OFF switch, 1 ON switch): -1; higher = weaker reporter binding
test parameters: Eterna round: R95; input ligand: microRNA oligo, concentration not stated
Give your result in nM as a bare value.

AUUAAAACAUAGGAUAUCGAAAUUAUUAUUUAACGAGAAGGAUGAACAUGAGGAUCACCCAUGUGGUAUCAUGG [Mat - Exclusion 6 - JL Mod - D28] (puzzle: Exclusion 6)	367
CGUGCGUAUGUGAGGAUAUGCUGGUCCUUGGAUCGGCAGAAGGCACAUGAGGAUCACCCAUGUGGUGUCGUACG [salish99_Bmod_ex4_080] (puzzle: Brourd's mod of Exclusion 4)	374
GGUGCGUAUGUGAGGAUAUGCUGGUCCUUGGCUCGGCAGAAGGCACAUGAGGAUCACCCAUGUGGUGUCGUACC [salish99_Bmod_ex4_054] (puzzle: Brourd's mod of Exclusion 4)	141
AGUAGGUCUACCUUGGUGGAUCUGCAUUUAUGCAGGUGUACAUGAGGAUCACCCAUGUCCUCAUUUGCUCGUCUUAU [JL turnoff v2 99.27] (puzzle: Sensor v3, turn-off variant 2)	501

Reported apparent KD of MS2 coat protein ( GGUGCGUAUGUGAGGAUAUGCUGGUCCUUGGAUCAGCAGAAGGCACAUGAGGAUCACCCAUGUGGUGUCGUACC [JL bmx4 3.46] (puzzle: Brourd's mod of Exclusion 4) ) = 149

----------
Test system: MS2 coat protein
assay text: apparent KD of MS2 coat protein; higher = weaker reporter binding
test parameters: Eterna round: R107; input ligand: theophylline 2 mM
assay metric: apparent KD of MS2 coat protein (nM)
Give your result in nM as a bare value.

The following sequences have reported results that may help.
AGAGCAUUGACGGCCGCCACUCAUGUCACAUGAGGAUCACCCAUGUGAUGGGUAAUCGCCCGGUUGAGGACCGGGUCAAUGCUCA [Omei Tryp SS B v3]	8.46
UACCGAUGAAGAAGGAGCGAUUUUAUGUUACAUGAGGAUCACCCAUGUGGACUAGGUGAAGAUCAGGUAGGUCGCUUCAUCGGUA [SSAB NP+V+V2 #20]	22

Would you kindly look at the next entry?
# value of apparent KD of MS2 coat protein, MS2 coat protein, item GCCGCGGCCGGAAUAAACAUGGGUAAAUAACGAGGACCGGUACGGCCGCCACUCGAGAUAAAUAACAUGAGGAUCACCCAUGUAC [Exclusion Tryp A GF11] = 123
